Cited source for all entries: patent US10028935B2

Measured solubility, listed per entry for reference.
# ASSAY_NAME: Solubility of stock solutions in dimethyl sulfoxide (DMSO)
# Assay type: physicochemical
# CONDITION_PARAMETERS: organic solvent or mixture, stock solution in dimethyl sulfoxide

- CC(=O)N[C@@H](CSC(=O)[C@H](Cc1cnc[nH]1)NC(=O)CCN)C(N)=O: ≥ 50 mM

We next turn to a different compound, shown below.
QUERY: Look at this compound and give its reported solubility. NCCC(=O)N[C@@H](Cc1cnc[nH]1)C(=O)O [carnosine, reference compound]
RESULT: < 50 mM

* * *

# ASSAY_NAME: Solubility in physiologic buffer (PBS, pH 7.4) by nephelometry
# Assay type: physicochemical
# CONDITION_PARAMETERS: aqueous buffer, thermodynamic from solid, phosphate buffered saline, top concentration 500 mg/mL, serial 1:2 dilutions
ENDPOINT: solubility (mg/mL)
Please respond with the number in mg/mL and leave the unit unwritten.

QUERY: Look at this molecule and give its reported solubility. NCCC(=O)N[C@@H](Cc1cnc[nH]1)C(=O)O [carnosine, reference compound]
RESULT: 250
